Measurement notes: Quantitative determination of solubility of compound 5 (UPLC)
Type: physicochemical
Condition summary: aqueous acid solution (350 mM oxoglutaric acid in water), 25 °C, aqueous buffer, thermodynamic from solid, Oxoglutaric acid 350 mM in water, read-out: Solubility T = 3 Days
Metric: solubility at 3 days (mg/mL)
// units = mg/mL; emit number, no label

Given COc1cc(NCCNC(=O)/C=C/C(C)(F)F)ccn1 , respond with its solubility at 3 days.
135

###

Measurement notes: Quantitative determination of solubility of compound 5 (UPLC)
Format: physicochemical
Condition summary: aqueous acid solution (350 mM tartaric acid in water), 25 °C, aqueous buffer, thermodynamic from solid, Tartaric acid 350 mM in water, read-out: Solubility T = 1 Day Average
Metric: solubility at 1 day (mg/mL)
// units = mg/mL; emit number, no label

Given COc1cc(NCCNC(=O)/C=C/C(C)(F)F)ccn1 , respond with its solubility at 1 day.
137

Data origin: patent US20210107874A1
